assay: Clearance in CD1 mouse at 5 mg/kg, iv; type: ADME, organism-based; parameters: dose 5 mg/kg, route intravenous; conditions: in vivo
property: clearance (mL/min/kg)
# value in mL/min/kg; strip the unit string

What value of clearance has been reported for the following compound? CCOc1cc(-c2ccccc2)nc2cc(-c3nc([C@H]4C[C@@](C)(O)C4)n4ccnc(N)c34)ccc12 5

====

test: Plasma concentration in CD1 mouse at 2.5 mg/kg, po measured at 24 hrs; assay type: ADME, organism-based; parameters: dose 2.5 mg/kg, route oral
property: concentration at 24 h

Which concentration at 24 h is reported for this molecule? CCOc1cc(-c2ccccc2)nc2cc(-c3nc([C@H]4C[C@@](C)(O)C4)n4ccnc(N)c34)ccc12 < 30 nM
